system: SRY-box transcription factor 2 (SOX2) Protein Expression, Deisenroth Lab, SOX2 (gene 6657); assay: CCTE_Deisenroth_DEVTOX-GLR_Pluri_SOX2: CCTE's DevTox GLR-Pluri Assay Evaluation of SRY-box transcription factor 2 (SOX2) Protein Expression, Deisenroth Lab (AID 2284428)
Calls of active or inactive are those of the source. The calls were made as follows: active = hit-call score of the fitted dose curve at least 0.9, where 1 is the maximum; inactive = score below 0.9.
Labels: 1.0 for active, 0.0 for inactive

>  <COMPOUND STRUCTURE>
NC(=O)NO

>  <SYSTEM NAME>
SRY-box transcription factor 2 (SOX2) Protein Expression, Deisenroth Lab, SOX2 (gene 6657)

>  <ANSWER LABEL>
0.0

$$$$
>  <COMPOUND STRUCTURE>
CC[C@H](C)C(=O)O[C@H]1C[C@@H](C)C=C2C=C[C@H](C)[C@H](CC[C@@H]3C[C@@H](O)CC(=O)O3)[C@H]21

>  <SYSTEM NAME>
SRY-box transcription factor 2 (SOX2) Protein Expression, Deisenroth Lab, SOX2 (gene 6657)

>  <ANSWER LABEL>
1.0

$$$$
>  <COMPOUND STRUCTURE>
Cn1c(=O)c2c(ncn2C)n(C)c1=O

>  <SYSTEM NAME>
SRY-box transcription factor 2 (SOX2) Protein Expression, Deisenroth Lab, SOX2 (gene 6657)

>  <ANSWER LABEL>
0.0

$$$$
>  <COMPOUND STRUCTURE>
Nc1nc2ncc(CNc3ccc(C(=O)N[C@@H](CCC(=O)O)C(=O)O)cc3)nc2c(=O)[nH]1

>  <SYSTEM NAME>
SRY-box transcription factor 2 (SOX2) Protein Expression, Deisenroth Lab, SOX2 (gene 6657)

>  <ANSWER LABEL>
0.0

$$$$
>  <COMPOUND STRUCTURE>
C[C@](N)(Cc1ccc(O)c(O)c1)C(=O)O

>  <SYSTEM NAME>
SRY-box transcription factor 2 (SOX2) Protein Expression, Deisenroth Lab, SOX2 (gene 6657)

>  <ANSWER LABEL>
1.0

$$$$
